test system: HCT-116; test: NCI tumour cell line growth inhibition, 48 h
Calls of active or inactive are those of the source. Cut-off read from the data, not from the text of the source: active = GI50 up to about 1.1 µM and inactive = higher.
measured_endpoint: GI50

Sample records with GI50:
O=C1c2ccccc2C(=O)N1C/C=N/NS(=O)(=O)c1ccc(Br)cc1 : > 100 µM (inactive)
N=C(N)NCCNC(=N)N : > 100 µM (inactive)
COC(=O)C1=C(c2ccc3c(c2)OCO3)OC(c2cc(OC)c(OC)c(OC)c2)C1 (stereo unspecified) : 2.88 µM (inactive)
CCCCOCn1c(=O)[nH]c(=O)c2ccccc21 : > 100 µM (inactive)

Form: Entry = N#C/C(=C\c1ccc(Cl)cc1)c1nc2ccccc2c(=O)[nH]1 | System = HCT-116 | GI50 = ____
> 100 µM (inactive)

Form: Entry = CC(C)CC1C(=O)NCCC(NC(=O)C(Cc2ccc(OC(C)(C)C)cc2)NC(=O)OC(C)(C)C)C(=O)NC(Cc2ccccc2)C(=O)NC(Cc2ccccc2)NC1=O (stereo unspecified) | System = HCT-116 | GI50 = ____
4.05 µM (inactive)

* * *

tested on: HCT-116; test: NCI tumour cell line growth inhibition, 48 h
The source made the active and inactive calls. Cut-off read from the data, not from the text of the source: active = GI50 up to about 1.1 µM and inactive = higher.
measured_endpoint: GI50

O=C1NN=CN2C(=O)CCC12 (stereo unspecified) : > 100 µM (inactive)
O=C(NCCNCCNCCNC(=O)c1cc(-c2ccccc2)nc2ccccc12)c1cc(-c2ccccc2)nc2ccccc12 : 1.88 µM (inactive)
CCc1cc(C)cc2[n+]1CC=C2.[O-][Cl+3]([O-])([O-])[O-] : 18.2 µM (inactive)
O=C(NCc1cccc2ccccc12)N/N=C\c1ccc(Cl)cc1 : > 100 µM (inactive)
Cc1ccc(NC(=O)c2cccc(OP(=O)(O)Nc3ccc(C)cc3)c2)cc1 : > 100 µM (inactive)

Form: Entry = COc1cccc(C2c3cc4c(cc3OC(N3CCCC3)C2C)OCO4)c1O (stereo unspecified) | System = HCT-116 | GI50 = ____
4.61 µM (inactive)

Form: Entry = Nc1ccc2c(c1)S(=O)(=O)c1cc(N)ccc1-2 | System = HCT-116 | GI50 = ____
> 100 µM (inactive)

Form: Entry = CCCCN/C(=N/C#N)NCc1ccccc1 | System = HCT-116 | GI50 = ____
> 100 µM (inactive)

Form: Entry = CC(C)c1cccc(C(C)C)c1NC(=O)/C(CC(=O)CC(c1ccccc1)c1c(O)c2ccccc2oc1=O)=N/O (stereo unspecified) | System = HCT-116 | GI50 = ____
> 100 µM (inactive)

Form: Entry = CC(C)(C)c1cc(C(=O)/C=C/c2ccc3c(c2)OCO3)cc(C(C)(C)C)c1O | System = HCT-116 | GI50 = ____
4.51 µM (inactive)

Form: Entry = CCN(CC)CCC1CCCCN1CC(=O)N1c2ccccc2NC(=O)CC1C (stereo unspecified) | System = HCT-116 | GI50 = ____
> 100 µM (inactive)

* * *

# reported GI50; entries follow
test system: T47D; assay: NCI tumour cell line growth inhibition, 48 h
Calls of active or inactive are those of the source. Rule as the data show it: active = GI50 up to about 1.1 µM and inactive = higher.

Sample records with GI50:
COc1cccc(C2c3cc4c(cc3OC(N3CCCC3)C2C)OCO4)c1O (stereo not given) : 9.95 µM (inactive)
NC(=O)NC(=O)CCC(NS(=O)(=O)c1ccccc1)C(=O)NC(N)=O (stereo not given) : > 100 µM (inactive)
CCN(CC)CCC1CCCCN1CC(=O)N1c2ccccc2NC(=O)c2ccccc21 (stereo not given) : > 100 µM (inactive)
CC(=O)/N=C1\N/C(=C/c2cc([N+](=O)[O-])ccc2O)CN1C : > 100 µM (inactive)

Then this molecule:
Recorded GI50 for COC(=O)C1=C(C(=O)OC)SC(=C2SC3=C(SC(=C4SCCS4)S3)S2)S1 , please?
> 100 µM (inactive)

* * *

tested on: RXF 393; assay: NCI tumour cell line growth inhibition, 48 h
Active and inactive are the calls of the source. No stated cut-off is given here; in the data, active = GI50 up to about 1.1 µM and inactive = higher.
measured_endpoint: GI50

O=C(CC(O)(C(F)(F)Cl)C(F)(F)Cl)CC(O)(C(F)(F)Cl)C(F)(F)Cl : 1.8 µM (inactive)
Nc1nc(SCc2ccccn2)c2ncn(C3CCCC3)c2n1 : > 100 µM (inactive)
Cc1nnc2n(c1=O)CCCN2C : > 100 µM (inactive)
CC(C)OCN1COCN/C1=N/C#N : > 100 µM (inactive)
Cc1ccccc1/N=N/c1c(O)ccc2ccccc12 : > 100 µM (inactive)

Then this molecule:
Form: Entry = Clc1cccc(/C=N/C23CC4CC(CC(C4)C2)C3)c1Cl | System = RXF 393 | GI50 = ____
> 10 µM (inactive)

* * *

system: Hs-578T; experiment: NCI tumour cell line growth inhibition, 48 h
Activity calls are given as the source filed them. No stated cut-off is given here; in the data, active = GI50 up to about 1.1 µM and inactive = higher.
I would appreciate it if you answered using one of these outcomes: YES (active), NO (inactive)

CCN1C/C(=C\c2ccc(Cl)cc2)c2nc(N)c(C#N)c(-c3ccc(Cl)cc3)c2C1 : NO
NC1=C(Cl)C(=O)c2c(O)ccc(O)c2C1=O : NO
COc1cccc(NC(=O)CC(=O)NN)c1 : NO
COc1ccc(/C=C/c2ccnc3ccccc23)c(OC)c1 : NO

How was CCN(CC)CCCNc1ccc2nc(C)n3c4ccc(O)cc4c(=O)c1c23 classified in this test?
NO

How was N/C(S)=N/N=C/c1ncccc1O classified in this test?
NO

How was Clc1cc(N/N=C(\c2ccccc2)c2ccccn2)ncn1 classified in this test?
NO

How was Nc1n[nH]c2c1Cc1c(n(Cc3ccc(Cl)cc3)c3ccccc13)C(=O)N2 classified in this test?
NO

* * *

test system: UACC-62; assay: NCI tumour cell line growth inhibition, 48 h
Active and inactive are the calls of the source. Cut-off read from the data, not from the text of the source: active = GI50 up to about 1.1 µM and inactive = higher.
measured_endpoint: GI50

Sample records with GI50:
O=C(NCCNCCNCCNC(=O)c1cc(-c2ccccc2)nc2ccccc12)c1cc(-c2ccccc2)nc2ccccc12 : 2.05 µM (inactive)
Cc1cc(N(CCC#N)CCC#N)ccc1/N=N/c1ccc(C(=O)O)cc1 : > 100 µM (inactive)
COc1cccc(C2c3cc4c(cc3OC(N3CCCC3)C2C)OCO4)c1O (stereo not given) : 4.33 µM (inactive)
CNC(=O)NS(=O)(=O)c1ccc(C)cc1.NS(=O)O : > 100 µM (inactive)

Then this compound:
Recorded GI50 for CCC(NC(C)c1ccccc1)C(=O)c1ccc(OCc2ccccc2)c(OCc2ccccc2)c1 (stereo not given) , please?
> 100 µM (inactive)

* * *

tested on: LXFL 529; assay: NCI tumour cell line growth inhibition, 48 h
The source made the active and inactive calls. Rule as the data show it: active = GI50 up to about 1.1 µM and inactive = higher.
measured_endpoint: GI50

Sample records with GI50:
CN(C)/C=N\c1nc(=O)n(C2CCC(CO)O2)cc1F (stereo unspecified) : > 100 µM (inactive)
O=[N+]([O-])c1ccccc1C1N2CCCCC2[C@@H]2c3[nH]c4ccccc4c3CCN12 (stereo partly specified) : 10.8 µM (inactive)
Cc1cc(Cl)ccc1C1OC(=O)c2c1ccc1ccccc21 (stereo unspecified) : 74.1 µM (inactive)
c1ccc(P(=C2c3ccccc3-c3ccccc32)(c2ccccc2)c2ccccc2)cc1 : 3.85 µM (inactive)
c1ccc(C2N3CCCCC3[C@@H]3c4[nH]c5ccccc5c4CCN23)nc1 (stereo partly specified) : > 100 µM (inactive)
Cc1[nH]c2ccccc2c1/C=C/c1c(C)[nH]c2ccccc12 : > 100 µM (inactive)

Recorded GI50 for O=C(O)CC1CC=C[C@H]2c3cc4c(cc3C(=O)NC12)OCO4 (stereo partly specified) , please?
> 75 µM (inactive)

Recorded GI50 for O=C(Nc1nnc(S)[nH]1)C(=O)C(C(=O)c1ccc2ccccc2c1)C1OC(=O)c2ccccc21 (stereo unspecified) , please?
12.1 µM (inactive)

Recorded GI50 for O=[N+]([O-])c1ccc(C2=Nc3ccccc3[S+]([O-])C(c3ccccc3)C2)cc1 (stereo unspecified) , please?
13.5 µM (inactive)

Recorded GI50 for Nc1nc(S)nc(C(=O)Nc2ccc(Cl)c(Cl)c2)c1-c1ccc(Cl)cc1 , please?
> 100 µM (inactive)

Recorded GI50 for Fc1cccc(C2SCc3nc4ccccc4n32)c1 (stereo unspecified) , please?
25.2 µM (inactive)

Recorded GI50 for O=c1[nH]c(=O)n(C2OC(CO)C(N(O)Cc3ccc(F)cc3)C2O)cc1Br (stereo unspecified) , please?
> 100 µM (inactive)

Recorded GI50 for COc1ccc(-c2cn3ccsc3n2)cc1 , please?
> 100 µM (inactive)

* * *

test system: DMS-114; experiment: NCI tumour cell line growth inhibition, 48 h
Calls of active or inactive are those of the source. Cut-off read from the data, not from the text of the source: active = GI50 up to about 1.1 µM and inactive = higher.
I would appreciate it if you answered using one of these outcomes: YES = active, NO = inactive

The following molecules have reported results that may help.
CC12CCC(=O)N1c1cnccc1N2 (configuration not stated) : NO
CNc1ccc([N+](=O)[O-])c2c(NCCCN(C)C)ccnc12 : NO
CN[C@@H]1C[C@H]2O[C@@](C)([C@@H]1OC)n1c3ccccc3c3c4c(c5c6ccccc6n2c5c31)C(=O)N[C@@H]4O : YES
O=C1[C@H]2ON(c3ccccc3)C(c3ccco3)[C@H]2C(=O)N1c1ccc(Cc2ccc(N3C(=O)[C@@H]4ON(c5ccccc5)C(c5ccco5)[C@@H]4C3=O)cc2)cc1 (some centres not stated) : NO
Cc1ccc(S(=O)(=O)N/N=C/C(C)C)cc1 : NO

How was Cc1nn(C)c(=O)c2nn(-c3ccccc3)c(C)c12 classified in this test?
NO

How was Cc1[nH]c2ccccc2c1/C=C/c1c(C)[nH]c2ccccc12 classified in this test?
NO

How was Nc1c(-c2cn(Cc3ccccc3)c3ccccc23)[n+]([O-])c2ccccc2[n+]1[O-] classified in this test?
NO

How was CCN(CC)CCCNc1ccc2nc(C)n3c4ccc(O)cc4c(=O)c1c23 classified in this test?
NO

How was O=C1NN=CN2C(=O)CCC12 (configuration not stated) classified in this test?
NO
